Cited source for all entries: patent US4122034A

tested on: Pseudomonas acruginosa; assay: In vitro antibacterial activity, dilution in Mueller Hinton Agar (Table I); format: cell-based; details: pH 7.4, strain 762, Mueller Hinton Agar pH 7.4
Measurement kind: MIC (µg/mL)

                                compound  test_result
0    NCc1[nH]c2ccc(Cl)cc2c1-c1c(F)cccc1F         17.5
1    NCc1[nH]c2cc(Br)c(Cl)cc2c1-c1ccccc1         17.5
2       NCc1[nH]c2ccc(Cl)cc2c1-c1ccccc1F         17.5
3  NCc1[nH]c2ccc(Cl)cc2c1-c1ccc(Cl)cc1Cl         17.5
4        NCc1[nH]c2ccc(Cl)cc2c1-c1ccccc1         37.5

----------
tested on: Candida albicans; test: In vitro Anti-Candida activity, dilutions in Sabouraud's Dextrose Agar (Table III); assay type: cell-based; conditions: 48 h, strain Atkisson, after 48 hours
Measurement kind: MIC (µg/mL)

>>> print(df.to_string())
                                   molecule   target_of_assay  measurement_kind  units_text  test_result
0      NCc1[nH]c2ccc(Cl)cc2c1-c1ccccc1F [A]  Candida albicans               MIC       µg/mL           75
1  NCc1[nH]c2ccc(Cl)cc2c1-c1ccc(Cl)cc1Cl [E]  Candida albicans               MIC       µg/mL         37.5
2       NCc1[nH]c2ccc(Cl)cc2c1-c1ccccc1 [C]  Candida albicans               MIC       µg/mL           75
